protocol_notes: In vivo brain distribution by neuropharmacokinetic assessment at steady state
Set-up: species or system mice
condition_info: male, FVB wild-type (eletriptan); C57BL/6N (diphenhydramine), mouse, brain and plasma, intravenous, wild type mice, steady state; read-out: Kp (C,brain/C,plasma)
property_measured: Kp at 2 h

INSERT INTO measurements (structure_as_smiles, recorded_measurement) VALUES
  ('CN1CCC[C@@H]1Cc1c[nH]c2ccc(CCS(=O)(=O)c3ccccc3)cc12', 0.17);

====

protocol_notes: In vivo brain distribution by neuropharmacokinetic assessment at steady state
Parameters: species or system mice
condition_info: male, FVB (wild type and Abcb1a/Abcb1b knockout), mouse, plasma, intravenous; bolus dose followed by 2-h constant infusion; read-out: Plasma concentrations at steady state
property_measured: concentration at 2 h (ng/mL)

INSERT INTO measurements (structure_as_smiles, recorded_measurement) VALUES
  ('CN1CCC[C@@H]1Cc1c[nH]c2ccc(CCS(=O)(=O)c3ccccc3)cc12', 259);

====

measured_on: P-gp (Homo sapiens, UniProt P08183)
Sequence (P08183 whole entry): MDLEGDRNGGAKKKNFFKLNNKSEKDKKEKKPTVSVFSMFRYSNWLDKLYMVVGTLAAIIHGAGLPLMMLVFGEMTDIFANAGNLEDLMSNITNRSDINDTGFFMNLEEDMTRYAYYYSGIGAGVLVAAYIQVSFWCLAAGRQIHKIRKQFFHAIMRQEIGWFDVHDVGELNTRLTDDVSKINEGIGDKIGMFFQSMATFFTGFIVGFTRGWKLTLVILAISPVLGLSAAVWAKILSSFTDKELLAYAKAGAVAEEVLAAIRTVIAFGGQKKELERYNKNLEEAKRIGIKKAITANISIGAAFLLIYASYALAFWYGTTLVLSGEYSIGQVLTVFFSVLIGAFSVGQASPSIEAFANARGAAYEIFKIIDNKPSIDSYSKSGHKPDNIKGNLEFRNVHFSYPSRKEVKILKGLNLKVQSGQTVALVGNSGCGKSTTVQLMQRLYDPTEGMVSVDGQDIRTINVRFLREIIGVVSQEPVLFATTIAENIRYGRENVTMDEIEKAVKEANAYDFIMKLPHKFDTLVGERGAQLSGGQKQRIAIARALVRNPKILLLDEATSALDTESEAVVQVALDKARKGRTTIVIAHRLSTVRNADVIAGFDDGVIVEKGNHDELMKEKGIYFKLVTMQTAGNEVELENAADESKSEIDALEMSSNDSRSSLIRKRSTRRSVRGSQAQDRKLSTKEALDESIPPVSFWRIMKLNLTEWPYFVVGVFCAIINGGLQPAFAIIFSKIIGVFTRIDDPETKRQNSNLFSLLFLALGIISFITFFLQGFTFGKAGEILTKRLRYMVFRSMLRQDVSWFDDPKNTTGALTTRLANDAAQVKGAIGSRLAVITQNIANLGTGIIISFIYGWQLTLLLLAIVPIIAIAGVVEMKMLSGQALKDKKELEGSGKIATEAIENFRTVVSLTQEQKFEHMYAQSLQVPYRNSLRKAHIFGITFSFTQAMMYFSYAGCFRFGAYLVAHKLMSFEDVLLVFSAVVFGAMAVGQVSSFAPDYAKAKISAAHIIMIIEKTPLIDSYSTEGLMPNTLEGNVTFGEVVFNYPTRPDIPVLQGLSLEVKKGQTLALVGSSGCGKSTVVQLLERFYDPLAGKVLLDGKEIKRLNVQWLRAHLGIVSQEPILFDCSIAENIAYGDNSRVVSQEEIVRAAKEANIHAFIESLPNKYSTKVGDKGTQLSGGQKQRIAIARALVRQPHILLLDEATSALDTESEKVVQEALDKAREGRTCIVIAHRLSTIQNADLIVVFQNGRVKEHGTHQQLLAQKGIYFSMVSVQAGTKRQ
protocol_notes: Bidirectional transport across IPEC-J2 MDR1 monolayers
condition_info: pH 7.4
property_measured: efflux ratio at 120 min, 50 µM

INSERT INTO measurements (compound, measured_on, recorded_measurement) VALUES
  ('CN1CCC[C@@H]1Cc1c[nH]c2ccc(CCS(=O)(=O)c3ccccc3)cc12 [Eletriptan]', 'P-gp (Homo sapiens, UniProt P08183)', 28.9);

====

protocol_notes: in vitro
condition_info: C57, mouse, plasma, fu,plasma
property_measured: fraction unbound at 1 µM

INSERT INTO assay_data (structure_as_smiles, recorded_measurement) VALUES
  ('CN1CCC[C@@H]1Cc1c[nH]c2ccc(CCS(=O)(=O)c3ccccc3)cc12', 0.4);

====

protocol_notes: In vivo brain distribution by neuropharmacokinetic assessment at steady state
Set-up: species or system mice
condition_info: male, Abcb1a/Abcb1b-eKO1 (P-gp knockout), mouse, brain, intravenous; mdr1a/1b knockout mice, steady state; read-out: C,brain
property_measured: concentration at 2 h (ng/mL)

INSERT INTO measurements (structure_as_smiles, property_measured, unit_info, recorded_measurement) VALUES
  ('CN1CCC[C@@H]1Cc1c[nH]c2ccc(CCS(=O)(=O)c3ccccc3)cc12', 'concentration at 2 h', 'ng/mL', 1450);

====

protocol_notes: In vivo brain distribution by neuropharmacokinetic assessment at steady state
Set-up: species or system mice
condition_info: male, FVB wild-type (eletriptan); C57BL/6N (diphenhydramine), mouse, plasma, iv; wild type mice, steady state, 2-h i.v. infusion; read-out: C,plasma
property_measured: concentration at 2 h (ng/mL)

INSERT INTO measurements (structure_as_smiles, property_measured, recorded_measurement) VALUES
  ('CN1CCC[C@@H]1Cc1c[nH]c2ccc(CCS(=O)(=O)c3ccccc3)cc12', 'concentration at 2 h', 240);

====

protocol_notes: In vivo brain distribution by neuropharmacokinetic assessment at steady state
Parameters: species or system mice
condition_info: male, Abcb1a/Abcb1b-eKO1 (P-gp knockout), mouse, brain and plasma, intravenous, mdr1a/1b knockout mice, steady state; read-out: Kp,uu (C,brain·fu,brain)/C,plasma·fu,plasma)
property_measured: Kp at 2 h

INSERT INTO assay_data (structure_as_smiles, recorded_measurement) VALUES
  ('CN1CCC[C@@H]1Cc1c[nH]c2ccc(CCS(=O)(=O)c3ccccc3)cc12', 1.32);

====

protocol_notes: In vivo brain distribution by neuropharmacokinetic assessment at steady state
Set-up: species or system mice
condition_info: male, FVB wild-type (eletriptan); C57BL/6N (diphenhydramine), mouse, brain, intravenous; wild type mice, steady state; read-out: C,brain
property_measured: concentration at 2 h (ng/mL)

INSERT INTO assay_data (structure_as_smiles, recorded_measurement) VALUES
  ('CN1CCC[C@@H]1Cc1c[nH]c2ccc(CCS(=O)(=O)c3ccccc3)cc12', 41);

====

measured_on: P-gp (Homo sapiens)
protocol_notes: Bidirectional transport across IPEC-J2 MDR1 monolayers
condition_info: pH 7.4
property_measured: Papp A→B at 120 min, 50 µM (×10⁻⁶ cm/s)

INSERT INTO assay_data (structure_as_smiles, property_measured, recorded_measurement) VALUES
  ('CN1CCC[C@@H]1Cc1c[nH]c2ccc(CCS(=O)(=O)c3ccccc3)cc12', 'Papp A→B at 120 min, 50 µM', 0.82);

====

protocol_notes: in vitro
condition_info: C57, mouse, plasma, fu,brain
property_measured: fraction unbound at 1 µM

INSERT INTO results (structure_as_smiles, recorded_measurement) VALUES
  ('CN1CCC[C@@H]1Cc1c[nH]c2ccc(CCS(=O)(=O)c3ccccc3)cc12', 0.083);
